Sequence of the target: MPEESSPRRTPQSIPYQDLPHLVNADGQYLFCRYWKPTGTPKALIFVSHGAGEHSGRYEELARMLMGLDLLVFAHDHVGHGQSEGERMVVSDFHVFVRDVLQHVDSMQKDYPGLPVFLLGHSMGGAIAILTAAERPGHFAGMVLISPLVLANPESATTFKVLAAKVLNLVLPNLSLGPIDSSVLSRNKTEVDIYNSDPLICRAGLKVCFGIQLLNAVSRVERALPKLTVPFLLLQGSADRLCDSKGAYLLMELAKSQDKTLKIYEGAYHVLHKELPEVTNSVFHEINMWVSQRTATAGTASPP
reported.endpoint: pIC50
Scale for pIC50: -log10 of concentration given in mol/L; no unit attached.

As a guide, the following entries are already answered.
{"columns": ["molecule", "endpoint.value"],
 "data": [
  ["O=C(N1CC2(CC(c3nc(C4CC4)n[nH]3)C2)C1)N1CC2(CN(Cc3nc(C(F)(F)F)no3)C2)C1 [compound 662]", 7.92],
  ["O=C(N1CC(NCc2ccc(C(F)(F)F)c(F)c2)C1)N1CC2(CC(c3nnc(C4CC4)[nH]3)C2)C1 [compound 193]", 7.34],
  ["O=C(N1CC2(CC(Cc3ccc4ncnn4c3)C2)C1)N1CC2(CC(c3nc(C4CC4)n[nH]3)C2)C1 [compound 645]", 8.18]
]}

Enquiry: GET /values?readout=pIC50&item= CC(C)(C(=O)O)c1cccc(OC2CN(C(=O)N3CC4(CC(c5nnc(C6CC6)[nH]5)C4)C3)C2)c1 [Example 387]
Return: 7.10

Enquiry: Would you kindly repeat that for O=C(N1CC(C23CC(Cc4nnc(C5CC5)o4)(C2)C3)C1)N1CC2(CC(c3nc(C4CC4)n[nH]3)C2)C1 [compound 928] ?
Return: 8.60

Enquiry: Similarly, O=C(N1CC2(CC(Cc3ccc(OC(F)(F)F)cn3)C2)C1)N1CC2(CC(c3nnc(C4CC4)[nH]3)C2)C1 [compound 8] ?
Return: 9.89

Enquiry: Also check O=C(N1CC(c2ccc(-c3cc(C(F)(F)F)n[nH]3)cc2)C1)N1CC2(CC(c3nnc(C4CC4)[nH]3)C2)C1 [compound 851]
Return: 9.64

Enquiry: Another molecule to check: N#Cc1cc(C(F)(F)F)ccc1CC1CC2(C1)CN(C(=O)N1CC3(CC(c4nnc(C5CC5)[nH]4)C3)C1)C2 [compound 556]
Return: 9.35

Enquiry: Further, for O=C(N1CC2(CC(Cc3ccc(OC(F)(F)F)nc3)C2)C1)N1CC2(CC(c3nc(C4COC4)n[nH]3)C2)C1 [compound 769] ?
Return: 7.93

Enquiry: Also O=C(N1CC2(CC(c3nc(C4CC4)n[nH]3)C2)C1)N1CC2(CN(Cc3cc(C4CC4)n[nH]3)C2)C1 [compound 900] , if possible.
Return: 7.60

Enquiry: # repeat for O=C(N1CC(c2cnc(N3CC(C(F)(F)F)C3)nc2)C1)N1CC2(CC(c3nnc(C4CC4)[nH]3)C2)C1 [compound 263]
Return: 8.09

Enquiry: Would you kindly repeat that for O=C(N1CC2(CCC(S(=O)(=O)c3ccc(C(F)(F)F)cc3)CC2)C1)N1CC2(CC(c3nc(C4CC4)n[nH]3)C2)C1 [compound 723] ?
Return: 8.86

* * *

- test.system: UniProtKB Q99685
Parameter pIC50: see the listing below.
Remember, pIC50 is on a log scale: it is -log10 of the molar concentration.

Enquiry: Give the measured pIC50 of O=C(N1CC2(CC(Cc3nnc(C4(C(F)(F)F)CC4)o3)C2)C1)N1CC2(CC(c3nnc(C4CC4)[nH]3)C2)C1 .
Return: 8.80

Enquiry: Would you mind doing O=C(N1CC2(CC(c3nc(C4CC(F)(F)C4)n[nH]3)C2)C1)N1CC2(CN(Cc3cc(C(F)(F)F)ns3)C2)C1 as well?
Return: 5.84

Enquiry: Follow-up entry: O=C(N1CC2(CC(Cn3cc(C(F)(F)F)ccc3=O)C2)C1)N1CC2(CC(c3nc(C4CC4)n[nH]3)C2)C1
Return: 8.76

Enquiry: Entry to check: CS(=O)(=O)c1ccc(CC2CC3(C2)CN(C(=O)N2CC4(CC(c5nnc(C6CC6)[nH]5)C4)C2)C3)nc1
Return: 8.19

Enquiry: Param item: O=C(N1CC2(CC(Cc3ccc(S(=O)(=O)C(F)(F)F)cn3)C2)C1)N1CC2(CC(c3nc(C4CC4)n[nH]3)C2)C1
Return: 9.74

Enquiry: Further, for O=C(N1CC(c2ccc(C3(C(F)(F)F)CC3)cc2)C1)N1CC2(CC(c3nnc([C@@H](O)C(F)(F)F)[nH]3)C2)C1 (single isomer, unassigned) ?
Return: 7.47

Enquiry: Can you check O=C(N1CC2(CC(c3nc(C4CC4)n[nH]3)C2)C1)N1CC2(CC(C(F)(F)c3ccc(C(F)(F)F)nn3)C2)C1 next?
Return: 8.77

Enquiry: Then this molecule: O=C(N1CC2(CC(CNC3CS(=O)(=O)C3)C2)C1)N1CC2(CC(c3nnc(C4CC4)[nH]3)C2)C1
Return: 6.42

Enquiry: // same read-out, input: CS(=O)(=O)c1ccc(OCC2CCN(C(=O)N3CC4(CC(c5n[nH]c(C6CC6)n5)C4)C3)CC2)cc1C(F)(F)F
Return: 7.31

Enquiry: Record: O=C(N1CC2(CCC(Cc3ccc(Cl)cn3)CC2)C1)N1CC2(CC(c3nnc(C4CC4)[nH]3)C2)C1
Return: 9.52

* * *

Reported pIC50, MAGL protein (Homo sapiens, UniProt Q99685).
# pIC50 = -log10(concentration in molar units)

Solved entries:
{"columns": ["molecule.smiles", "reported.endpoint", "endpoint.value"],
 "data": [
  ["O=C(N1CC2(CC(Oc3ccc(F)cn3)C2)C1)N1CC2(CC(c3nc(C4CC4)n[nH]3)C2)C1", "pIC50", 8.26],
  ["NC(=O)c1cc(Cl)cnc1OCC1CCN(C(=O)N2CC3(CC(c4nc(C5CC5)n[nH]4)C3)C2)CC1", "pIC50", 7.00]
]}

Moving on to another molecule below.
Enquiry: Fill in: pIC50 of O=C(N1CC(OCc2cncc(C(F)(F)F)c2)C1)N1CC2(CC(c3nnc(C4CC4)[nH]3)C2)C1 is ___
Return: 7.42

* * *

pIC50 values by entry
Target chain: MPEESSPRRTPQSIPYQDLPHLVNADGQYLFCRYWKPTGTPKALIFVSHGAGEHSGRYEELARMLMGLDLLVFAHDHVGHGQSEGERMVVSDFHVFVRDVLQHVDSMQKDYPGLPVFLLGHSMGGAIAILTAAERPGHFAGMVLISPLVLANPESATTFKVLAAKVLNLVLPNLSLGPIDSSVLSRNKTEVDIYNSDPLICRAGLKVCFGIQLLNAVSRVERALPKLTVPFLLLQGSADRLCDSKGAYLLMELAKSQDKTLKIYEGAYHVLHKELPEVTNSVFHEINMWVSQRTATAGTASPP
Please report pIC50 as the negative decimal logarithm of the molar concentration, giving only the number.

Answered cases to consult:
{"columns": ["molecule.smiles", "reported.endpoint", "endpoint.value"],
 "data": [
  ["O=C(N1CC2(CC(Cn3nccc3C(F)(F)F)C2)C1)N1CC2(CC(c3nc(C4COC4)n[nH]3)C2)C1", "pIC50", 7.53],
  ["O=C(N1CC2(CC(Oc3cnc(C(F)(F)F)cn3)C2)C1)N1CC2(CC(c3nnc(C4CC4)[nH]3)C2)C1", "pIC50", 8.26],
  ["N#Cc1cc(C2CC2)ccc1OC1CN(C(=O)N2CC3(CC(c4nnc(C5(O)CC5)[nH]4)C3)C2)C1", "pIC50", 8.14]
]}

Enquiry: Could you share which pIC50 value was measured for O=C(c1cccc(F)c1)N1CCN(C(=O)N2CC3(CC(c4nnc(C5CC5)[nH]4)C3)C2)CC1 ?
Return: 5.53

Enquiry: O=C(N1CC(N(Cc2ccc(C(F)(F)F)cc2F)CC2CC2)C1)N1CC2(CC(c3nnc(C4CC4)[nH]3)C2)C1 , same question.
Return: 7.77

* * *

Listed here: items and their measured IC50.
Target chain: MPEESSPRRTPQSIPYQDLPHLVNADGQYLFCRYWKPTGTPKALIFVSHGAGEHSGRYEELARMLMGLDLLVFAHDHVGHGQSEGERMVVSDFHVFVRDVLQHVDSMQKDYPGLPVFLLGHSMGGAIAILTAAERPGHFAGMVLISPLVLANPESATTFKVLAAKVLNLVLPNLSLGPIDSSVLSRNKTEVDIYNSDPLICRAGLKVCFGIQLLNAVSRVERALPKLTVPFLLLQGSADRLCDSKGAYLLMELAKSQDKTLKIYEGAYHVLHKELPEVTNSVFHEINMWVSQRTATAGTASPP
Quick note: number first, unit second.

// known answers, use as guide
{"columns": ["molecule", "reported.endpoint", "endpoint.value"],
 "data": [
  ["O=C(N1CC(C23CC(S(=O)(=O)CC4(C(F)(F)F)CC4)(C2)C3)C1)N1CC2(CC(c3nc(C4CC4)n[nH]3)C2)C1 [compound 528]", "IC50", "497 nM"],
  ["O=C(N1CC2(CC(Oc3cncc(C(F)(F)F)n3)C2)C1)N1CC2(CC(c3nnc(C4CC4)[nH]3)C2)C1 [compound 133]", "IC50", "1.73 nM"],
  ["CS(=O)(=O)c1cc(CC2CC3(C2)CN(C(=O)N2CC4(CC(c5ncn[nH]5)C4)C2)C3)ccc1C(F)(F)F [compound 753]", "IC50", "1490 nM"],
  ["CS(=O)(=O)c1cccc(CN2CCC3(CC2)CN(C(=O)N2CC4(CC(c5nnc(C6CC6)[nH]5)C4)C2)C3)c1 [compound 181]", "IC50", "36.2 nM"],
  ["O=C(N1CC2(CC(Cn3nccc3C(F)(F)F)C2)C1)N1CC2(CC(c3nc(C4(F)CC4)n[nH]3)C2)C1 [compound 457]", "IC50", "0.31 nM"],
  ["O=C(N1CC2(CC(c3cnc(C(F)(F)F)nc3)C2)C1)N1CC2(CC(c3nnc(C4CC4)[nH]3)C2)C1 [compound 630]", "IC50", "1.36 nM"]
]}

Enquiry: // lookup IC50 for O=C(N1CC(C23CC(S(=O)(=O)c4ccc(C(F)(F)F)cn4)(C2)C3)C1)N1CC2(CC(c3nc(C4CC4)n[nH]3)C2)C1 [compound 807]
Return: 478 nM

Enquiry: Also NC(=O)C1CCCCN1c1ccc(C2CN(C(=O)N3CC4(CC(c5nnc(C6CC6)[nH]5)C4)C3)C2)cc1 (centres unmarked) [compound 384] ?
Return: 2.64 nM

Enquiry: Here is the next molecule: O=C(N1CC(c2cnc(N3CC[C@H](C(F)(F)F)C3)nc2)C1)N1CC2(CC(c3nc(C4CC4)n[nH]3)C2)C1 [compound 708]
Return: 2.63 nM

Enquiry: What do you have for O=C(N1CC(Cc2ccc(Cl)cc2)C1)N1CC2(CC(c3nnc(C4(O)CC4)[nH]3)C2)C1 [compound 361] ?
Return: 45.6 nM

Enquiry: Quick one: O=C(N1CC2(CCC(Cc3ncc(F)cc3F)CC2)C1)N1CC2(CC(c3nnc(C4(O)CC4)[nH]3)C2)C1 [compound 143]
Return: 14.5 nM

Entry source: patent US20250099448A1
